- target_or_test_system: PRKAA1 PRKAB2 PRKAG1 (human) (UniProt O43741+Q13131+P54619)
- Sequence (O43741 whole entry, looked up): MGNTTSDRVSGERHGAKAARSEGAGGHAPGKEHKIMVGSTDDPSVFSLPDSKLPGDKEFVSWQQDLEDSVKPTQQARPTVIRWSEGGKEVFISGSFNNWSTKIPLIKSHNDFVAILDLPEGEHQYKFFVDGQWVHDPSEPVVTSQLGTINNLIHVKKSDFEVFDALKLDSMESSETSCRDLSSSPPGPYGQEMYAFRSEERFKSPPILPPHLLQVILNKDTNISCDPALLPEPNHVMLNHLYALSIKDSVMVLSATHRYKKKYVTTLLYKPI
- Sequence (P54619 whole entry, looked up): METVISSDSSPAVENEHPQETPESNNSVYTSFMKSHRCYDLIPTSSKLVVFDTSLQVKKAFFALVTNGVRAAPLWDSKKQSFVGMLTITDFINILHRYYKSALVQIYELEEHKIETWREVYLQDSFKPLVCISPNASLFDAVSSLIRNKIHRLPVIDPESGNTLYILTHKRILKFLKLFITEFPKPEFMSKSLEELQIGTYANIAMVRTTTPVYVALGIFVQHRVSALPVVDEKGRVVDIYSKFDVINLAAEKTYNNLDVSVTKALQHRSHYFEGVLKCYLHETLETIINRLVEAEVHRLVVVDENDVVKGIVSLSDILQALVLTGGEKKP
- Sequence (Q13131 whole entry, looked up): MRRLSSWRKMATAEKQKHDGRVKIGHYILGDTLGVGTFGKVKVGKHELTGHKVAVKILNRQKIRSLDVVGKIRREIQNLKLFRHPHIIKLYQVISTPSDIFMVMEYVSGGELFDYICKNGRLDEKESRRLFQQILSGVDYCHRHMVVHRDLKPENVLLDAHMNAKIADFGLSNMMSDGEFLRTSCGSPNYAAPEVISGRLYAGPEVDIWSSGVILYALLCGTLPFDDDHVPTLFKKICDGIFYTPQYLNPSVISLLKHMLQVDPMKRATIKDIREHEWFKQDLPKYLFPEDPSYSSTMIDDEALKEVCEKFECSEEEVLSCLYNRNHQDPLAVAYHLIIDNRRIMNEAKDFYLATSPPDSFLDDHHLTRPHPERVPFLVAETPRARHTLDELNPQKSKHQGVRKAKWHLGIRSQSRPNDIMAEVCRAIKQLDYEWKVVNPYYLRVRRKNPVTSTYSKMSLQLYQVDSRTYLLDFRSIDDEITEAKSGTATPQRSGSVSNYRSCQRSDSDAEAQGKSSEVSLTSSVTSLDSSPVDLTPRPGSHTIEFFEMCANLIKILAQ
- measurement_notes: radiometric filter-binding kinase assay
- condition: compound 1.0 µM
// classify: if (residual activity < 70%) class 1 else class 0

Here's an entry: COc1cc(C(=O)N2CCOCC2)c(F)cc1Nc1ncc(C(F)(F)F)c(NC2CC2)n1 . Is its residual activity below 70%?
class 0

Now give it for CNC(=O)C1[C@H]2O[C@@](C)([C@@H]1N)n1c3ccccc3c3c4c(c5c6ccccc6n2c5c31)C(=O)NC4 (stereo not given in full) too.
class 1

Then CCn1c(-c2nonc2N)nc2cncc(CNC3CCNCC3)c21 ?
class 0

# iterate: NCC(=O)Nc1ccc(-n2nc(C(F)(F)F)cc2-c2ccc3c(ccc4ccccc43)c2)cc1
class 0

###

- target_or_test_system: PAK4 (human) (UniProt O96013)
- Sequence (O96013 whole entry, looked up): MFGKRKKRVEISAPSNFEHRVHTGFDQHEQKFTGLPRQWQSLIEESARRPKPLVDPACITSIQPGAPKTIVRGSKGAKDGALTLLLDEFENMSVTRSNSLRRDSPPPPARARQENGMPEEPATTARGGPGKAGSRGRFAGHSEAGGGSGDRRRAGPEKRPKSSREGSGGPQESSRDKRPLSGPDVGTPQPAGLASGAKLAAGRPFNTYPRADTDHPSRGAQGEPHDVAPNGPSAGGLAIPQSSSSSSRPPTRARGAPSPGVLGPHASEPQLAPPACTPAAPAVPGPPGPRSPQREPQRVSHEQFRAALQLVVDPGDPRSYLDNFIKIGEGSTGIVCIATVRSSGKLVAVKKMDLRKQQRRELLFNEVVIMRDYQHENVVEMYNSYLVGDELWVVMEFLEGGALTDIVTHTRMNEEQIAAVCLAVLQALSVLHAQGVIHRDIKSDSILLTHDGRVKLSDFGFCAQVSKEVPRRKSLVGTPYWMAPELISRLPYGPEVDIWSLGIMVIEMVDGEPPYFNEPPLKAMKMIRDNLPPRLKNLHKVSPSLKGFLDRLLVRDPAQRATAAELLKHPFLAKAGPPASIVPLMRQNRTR
- measurement_notes: radiometric filter-binding kinase assay
- condition: compound 1.0 µM
Exercise: state measured residual activity for each of the compounds provided.
Response body: numeric value in %, unit text excluded.

Quick one: residual activity of O=C1NC(=S)N[C@@H]1Cc1c[nH]c2ccccc12 ?
103

Entry to check: CCn1c(-c2nonc2N)nc2cncc(CNC3CCNCC3)c21
96

Entry to check: NCC(=O)Nc1ccc(-n2nc(C(F)(F)F)cc2-c2ccc3c(ccc4ccccc43)c2)cc1
84

Query COc1cc(C(=O)N2CCOCC2)c(F)cc1Nc1ncc(C(F)(F)F)c(NC2CC2)n1 next
85

NS(=O)(=O)OC[C@@H]1C[C@@H](n2ccc3c(N[C@H]4CCc5ccccc54)ncnc32)C[C@@H]1O ?
101

###

- target_or_test_system: PRKACA (human)
- measurement_notes: radiometric filter-binding kinase assay
- condition: compound 100.0 µM
property_measured: residual activity (%)
Give just the numeric value; % need not be written.

Would you kindly share the measured residual activity for Cc1ccc2c(c1)C(=O)[C@@]1(O)CCN(c3ccccc3)C1=N2 ?
70

Another: COC(=O)/C=C/C(=O)OC
96

// next record Cc1cc(N=Nc2cc(S(=O)(=O)O)c(C)cc2C)c(N)cc1O
90

And for N#Cc1c(O)c2c(-c3ccc(-c4ccccc4O)cc3)csc2[nH]c1=O ?
95

###

Exercise: state measured residual activity for each of the compounds provided.
- target_or_test_system: MAPKAPK5 (human)
- measurement_notes: radiometric filter-binding kinase assay
- condition: compound 1.0 µM
# output: numeric value plus its unit

Entry COc1ccc(N(C(=O)Nc2c(C)cccc2C)c2cc(Nc3ccc(N4CCN(C)CC4)cc3)ncn2)c(OC)c1 has what residual activity?
125%

Subsequent entry: COc1cc2ncn(-c3cc(OCc4ccccc4S(C)(=O)=O)c(C#N)s3)c2cc1OC
101%

Now consider NCC(=O)Nc1ccc(-n2nc(C(F)(F)F)cc2-c2ccc3c(ccc4ccccc43)c2)cc1 .
89%

What do you get for COc1cc(C(=O)N2CCOCC2)c(F)cc1Nc1ncc(C(F)(F)F)c(NC2CC2)n1 ?
77%

Let us now turn to CCn1c(-c2nonc2N)nc2cncc(CNC3CCNCC3)c21
95%

Now try Cc1cccc(-c2nn(C(=S)Nc3ccccc3)cc2-c2ccnc3ccccc23)n1 .
99%

Next record, please: O=C(NOC[C@H](O)CO)c1ccc(F)c(F)c1Nc1ccc(I)cc1Cl
98%

What would you report for CNC(=O)C1[C@H]2O[C@@](C)([C@@H]1N)n1c3ccccc3c3c4c(c5c6ccccc6n2c5c31)C(=O)NC4 (some centres not stated) ?
2%

Try this compound too: CC(C)(C#N)c1ccc(N2C(=O)OCc3cnc4ccc(-c5cnc6ccccc6c5)cc4c32)cc1
82%

Entry C[C@H]1CCCC(=O)CCC/C=C/c2cc(O)cc(O)c2C(=O)O1 please
97%

Repeat with CNc1nc(-c2ccc3c(N)n[nH]c3c2)cc(N2C[C@@H](C(=O)NC3CCCCC3)CC[C@H]2C)n1
110%

Now the same for COc1cc(O)c2c(c1)[C@H]1OC1C[C@H](O)[C@H](O)C(=O)/C=C\C[C@H](C)OC2=O (some centres not stated)
32%

// next record O=C1NC(=S)N[C@@H]1Cc1c[nH]c2ccccc12
89%

Okay, and O=C(Nc1nc2cc(C(F)(F)F)cc(NC3CC3)n2n1)c1cccnc1 ?
98%

Would you kindly repeat that for Oc1ccc2ccccc2c1SSc1c(O)ccc2ccccc12 ?
86%

Try this compound too: Cc1cc(NC(=O)c2cccc(NC(=O)/C=C/CN(C)C)c2)ccc1Nc1nccc(-c2cccnc2)n1
82%

Repeat with O=C(O)c1cc(N=Nc2ccc(S(=O)(=O)Nc3ccccn3)cc2)ccc1O
92%

Please do the same for O=C(Nc1ccccc1-c1cn2c(CN3CCNCC3)csc2n1)c1cnc2ccccc2n1 as well.
91%

Also C=CC(=O)N1CCC[C@@H](n2nc(-c3ccc(Oc4ccccc4)cc3)c3c(N)ncnc32)C1 ?
107%

Proceed to Cc1cccc(Nc2nn(C)c3ncnc(N)c23)c1
101%

And Cc1nc(-c2ccc(OCC(C)C)c(C#N)c2)sc1C(=O)O ?
87%

Try Oc1ccc(/C=C/c2cc(O)cc(O)c2)cc1 next.
105%

Same for Cn1c(=O)c2c(ncn2C)n(C)c1=O
86%

Then this compound: CCNc1nc(Nc2cc(F)c(C(=O)N3CCOCC3)cc2OC)ncc1C(F)(F)F
80%

For O=C(Nc1cccnc1)c1cc(-c2ccnc(F)c2)ccc1OCc1ccccc1 then?
109%

Next: O=C(NOCC(O)CO)c1ccc(F)c(F)c1Nc1ccc(I)cc1Cl (configuration not stated)
93%

Let us now turn to Cc1ccc(-c2ccc3c(ccc4sc5c(c43)NC[C@@H](C)NC5=O)n2)cn1
67%

Same for CCCCCc1ccc(/C=C/[C@H](O)[C@@H](CO)NC)cc1
99%

Try this compound too: O=C(N[C@@H](COc1ccc2[nH]c(=O)[nH]c2c1)c1ccccc1)c1cccn(Cc2ccc(F)c(F)c2)c1=O
100%

Repeat with Nc1cccc2c1CN(C1CCC(=O)NC1=O)C2=O (configuration not stated)
86%

Would you kindly repeat that for NC(=O)c1cc2c(-c3cccc(-c4ccccc4)c3)cnc(N)c2s1 ?
42%

// repeat for Cc1ccc(=O)n(-c2ccccc2)c1 and report
100%

Next entry: Cn1nc(Nc2ccc(F)cc2)c2c(N)ncnc21
107%

Item: O=C(O)c1ccc(-c2c[nH]c3ncc(-c4ccccc4)cc23)cc1C1CCCC1
77%

And the next one, NC(=O)c1c(NC(=O)C2CC2)sc2c1CCCC2 ?
96%

How about this compound: COc1ccc2c(c1)c1c3c(c4c5ccccc5n(C)c4c1n2CC(O)CN(C)C)C(=O)NC3=O (configuration not stated)
103%

How about COc1cc(O)c2c(c1)/C=C/C[C@H](O)[C@H](O)C(=O)/C=C\C[C@H](C)OC2=O ?
14%

Please do the same for O=C(NCCCNc1nc(Nc2cccc(CN3CCOCC3)c2)ncc1C1CC1)C1CCC1 as well.
122%

Another: O=C1Nc2nc(-c3c(O)cccc3OCC3CC3)cc(C3CCCNC3)c2CO1 (configuration not stated)
74%

Input CCCC(CCC)C(=O)O
92%

Now give it for CN(C)C/C=C/C(=O)Nc1cccc(C(=O)Nc2ccc(Nc3nccc(-c4cccnc4)n3)cc2)c1 too.
85%

Item: COc1ccc(-n2ncc3cnc(Nc4cc(OC)c(OC)c(OCCCN5CCN(C)CC5)c4)nc32)cc1
85%

###

- Test system: AKT2 (human), P31751 [S474D]
- Sequence (P31751 whole entry S474D, looked up): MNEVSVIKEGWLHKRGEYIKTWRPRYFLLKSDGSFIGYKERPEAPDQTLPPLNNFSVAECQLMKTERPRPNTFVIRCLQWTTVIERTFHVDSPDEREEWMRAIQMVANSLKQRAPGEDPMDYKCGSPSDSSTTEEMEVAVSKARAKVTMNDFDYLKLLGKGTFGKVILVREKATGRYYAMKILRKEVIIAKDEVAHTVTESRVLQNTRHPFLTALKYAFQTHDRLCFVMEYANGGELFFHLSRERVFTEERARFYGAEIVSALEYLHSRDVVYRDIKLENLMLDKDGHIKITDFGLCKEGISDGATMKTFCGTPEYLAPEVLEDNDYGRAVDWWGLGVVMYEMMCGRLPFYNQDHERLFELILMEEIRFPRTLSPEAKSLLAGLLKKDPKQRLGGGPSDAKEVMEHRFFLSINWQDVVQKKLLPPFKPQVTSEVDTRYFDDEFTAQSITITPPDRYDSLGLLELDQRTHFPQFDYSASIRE
- measurement_notes: radiometric filter-binding kinase assay
- condition: compound 1.0 µM
// label = condition met if residual activity is not less than 90%, otherwise condition not met

residual activity >= 90% for NC(=O)Nc1ccc2c(c1)/C(=C/c1cc(-c3cccnc3)c[nH]1)C(=O)N2 ?
condition not met

Field entry: CCn1c(-c2nonc2N)nc2cncc(CNC3CCNCC3)c21
condition not met

Next record, please: Nc1cccc2c1CN(C1CCC(=O)NC1=O)C2=O (stereo unspecified)
condition not met

// next record O=C(NOCC(O)CO)c1ccc(F)c(F)c1Nc1ccc(I)cc1Cl (stereo unspecified)
condition met

Would you mind doing COc1ccc(-n2ncc3cnc(Nc4cc(OC)c(OC)c(OCCCN5CCN(C)CC5)c4)nc32)cc1 as well?
condition not met

Note, next up: NCC(=O)Nc1ccc(-n2nc(C(F)(F)F)cc2-c2ccc3c(ccc4ccccc43)c2)cc1
condition not met

Again, but for CN(C)C/C=C/C(=O)Nc1cccc(C(=O)Nc2ccc(Nc3nccc(-c4cccnc4)n3)cc2)c1
condition met

Entry Cn1c(=O)c2c(ncn2C)n(C)c1=O please
condition not met

What do you have for Cn1nc(Nc2ccc(F)cc2)c2c(N)ncnc21 ?
condition met

Param item: FC(F)(F)c1ccc(-c2ccc(Oc3cncc4sc(-c5nn[nH]n5)cc34)cc2)cc1
condition met

Then this compound: O=C(Nc1ccccc1-c1cn2c(CN3CCNCC3)csc2n1)c1cnc2ccccc2n1
condition not met

Entry NC(=O)c1c(NC(=O)C2CC2)sc2c1CCCC2 please
condition met

And for CNC(=O)C1[C@H]2O[C@@](C)([C@@H]1N)n1c3ccccc3c3c4c(c5c6ccccc6n2c5c31)C(=O)NC4 (stereo partly specified) ?
condition not met

Okay, and Cc1cc(SCc2sc(-c3ccc(C(F)(F)F)cc3)nc2C)ccc1OCC(=O)O ?
condition met

Can you check CNc1nc(-c2ccc3c(N)n[nH]c3c2)cc(N2C[C@@H](C(=O)NC3CCCCC3)CC[C@H]2C)n1 next?
condition met

Now consider Cc1nc(-c2ccc(OCC(C)C)c(C#N)c2)sc1C(=O)O .
condition met

Also need O=C(N[C@@H](COc1ccc2[nH]c(=O)[nH]c2c1)c1ccccc1)c1cccn(Cc2ccc(F)c(F)c2)c1=O , thanks.
condition met

The reported measurements were obtained from the kinase profiling compilation of Christmann-Franck et al. (2016).
